Study target: b-Raf (V600E) (Homo sapiens (Human), UniProt P15056, V600E)
Sequence (P15056 whole entry V600E): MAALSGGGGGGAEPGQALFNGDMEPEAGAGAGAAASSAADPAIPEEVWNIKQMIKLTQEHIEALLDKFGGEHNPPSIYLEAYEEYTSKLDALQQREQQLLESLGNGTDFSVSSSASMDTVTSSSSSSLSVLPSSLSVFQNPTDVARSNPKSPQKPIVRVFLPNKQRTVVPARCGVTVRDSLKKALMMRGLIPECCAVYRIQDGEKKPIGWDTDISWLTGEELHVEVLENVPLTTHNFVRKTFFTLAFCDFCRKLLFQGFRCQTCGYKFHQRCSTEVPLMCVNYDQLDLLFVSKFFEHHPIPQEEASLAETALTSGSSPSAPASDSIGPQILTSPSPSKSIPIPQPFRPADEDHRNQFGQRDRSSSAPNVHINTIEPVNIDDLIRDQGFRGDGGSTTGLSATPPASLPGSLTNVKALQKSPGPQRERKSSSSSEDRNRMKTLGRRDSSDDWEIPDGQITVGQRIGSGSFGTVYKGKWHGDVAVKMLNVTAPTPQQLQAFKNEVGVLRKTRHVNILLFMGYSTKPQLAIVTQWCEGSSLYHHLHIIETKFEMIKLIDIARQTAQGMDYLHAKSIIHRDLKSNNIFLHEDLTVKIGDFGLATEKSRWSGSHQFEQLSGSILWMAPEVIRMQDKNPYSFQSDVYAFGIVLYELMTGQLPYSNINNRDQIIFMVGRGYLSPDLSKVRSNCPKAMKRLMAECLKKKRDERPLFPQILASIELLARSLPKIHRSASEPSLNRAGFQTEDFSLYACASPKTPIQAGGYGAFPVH
Assay text: In vitro Raf activity determination (Alpha Screen, phospho-MEK), b-Raf (V600E)
Details: ATP 10 μM, 60 min pre-incubation, 3 hours reaction
pIC50: −log10 of the molar value.
Assay endpoint: pIC50

Known pIC50 results, listed for orientation:
{"Compound": "Cc1ccc(NC(=O)c2ccnc(C(C)(C)C#N)c2)cc1-c1cc(C2(C)COC2)c2nccn2n1 [Example 29]", "Study target": "b-Raf (V600E) (Homo sapiens (Human), UniProt P15056, V600E)", "pIC50": 8.31}
{"Compound": "Cc1ncc(NC(=O)c2cc(C(C)(C)C#N)ccn2)cc1-c1cccc(C2(C)COC2)c1 [Example 126]", "Study target": "b-Raf (V600E) (Homo sapiens (Human), UniProt P15056, V600E)", "pIC50": 8.11}

A: CCOc1ncc(-c2cc(NC(=O)c3cnnc(C(C)(C)C#N)c3)cnc2C)cc1C1(C)COC1 [Example 65]
B: CCOc1ncc(-c2cc(NC(=O)c3cnnc(C(F)(F)F)c3)cnc2C)cc1C1(C)COC1 [Example 66]
Query :: Select the item with the higher value of pIC50 from the options A and B listed. Bench note: the answer is the label of the chosen record.
Result :: B
(B: 8.84, A: 8.15)

###

Study target: b-Raf (V600E) (Homo sapiens (Human), UniProt P15056, V600E)
Assay text: In vitro Raf activity determination (Alpha Screen, phospho-MEK), b-Raf (V600E)
Details: ATP 10 μM, 60 min pre-incubation, 3 hours reaction
pIC50: −log10 of the molar value.
Assay endpoint: pIC50

Known pIC50 results, listed for orientation:
{"Smiles notation": "COc1ncc(-c2cc(NC(=O)c3cc(C(C)(C)N)cc(C(F)(F)F)c3)ccc2C)cc1C1(O)COC1", "pIC50": 8.19}
{"Smiles notation": "COc1ncc(-c2cc(NC(=O)c3ccnc(C4(C#N)CC4)c3)ccc2C)cc1C1(O)COC1", "pIC50": 8.66}
{"Smiles notation": "COc1ncc(-c2cc(NC(=O)c3ccnc(C(C)(F)F)c3)cnc2C)cc1C1(C#N)COC1", "pIC50": 8.21}
{"Smiles notation": "COc1ncc(-c2cc(NC(=O)c3cc(C(C)(C)C#N)ccn3)ccc2C)cc1C1(O)COC1", "pIC50": 8.19}

A: CCOc1ncc(-c2cc(NC(=O)c3cc(C(C)(C)N)cc(C(F)(F)F)c3)cnc2C)cc1C1(F)COC1
B: COc1ncc(-c2cc(NC(=O)c3ccnc(C(F)(F)F)c3)ccc2C)cc1C1(CF)COC1
C: CCOc1ncc(-c2cc(NC(=O)c3ccnc(C(C)(C)F)c3)ccc2C)cc1C1(O)COC1
Query :: Order the records by pIC50, with each subsequent value no larger than the one before. Order the labels as requested and give them as your answer.
Result :: B, C, A

###

Study target: C-Raf FL (Homo sapiens (Human), UniProt P04049, Y340E/Y341E)
Sequence (P04049 whole entry Y340E/Y341E): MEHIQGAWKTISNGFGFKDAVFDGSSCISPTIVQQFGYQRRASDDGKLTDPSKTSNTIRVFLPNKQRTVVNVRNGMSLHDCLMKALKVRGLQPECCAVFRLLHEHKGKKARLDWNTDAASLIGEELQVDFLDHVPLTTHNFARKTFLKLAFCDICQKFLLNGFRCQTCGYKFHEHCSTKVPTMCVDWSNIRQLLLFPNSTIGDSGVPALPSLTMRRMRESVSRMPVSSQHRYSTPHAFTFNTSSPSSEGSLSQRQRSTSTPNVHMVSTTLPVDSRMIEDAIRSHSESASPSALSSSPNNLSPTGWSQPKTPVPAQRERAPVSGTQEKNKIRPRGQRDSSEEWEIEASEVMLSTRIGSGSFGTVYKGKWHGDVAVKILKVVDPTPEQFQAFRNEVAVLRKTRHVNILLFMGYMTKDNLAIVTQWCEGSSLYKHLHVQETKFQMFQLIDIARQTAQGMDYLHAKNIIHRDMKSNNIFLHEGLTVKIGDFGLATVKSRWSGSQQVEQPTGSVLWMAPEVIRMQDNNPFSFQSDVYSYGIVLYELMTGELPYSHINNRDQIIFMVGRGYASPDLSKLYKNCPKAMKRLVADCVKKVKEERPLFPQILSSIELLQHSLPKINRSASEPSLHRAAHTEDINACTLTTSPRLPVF
Sequence (P63104 whole entry partner): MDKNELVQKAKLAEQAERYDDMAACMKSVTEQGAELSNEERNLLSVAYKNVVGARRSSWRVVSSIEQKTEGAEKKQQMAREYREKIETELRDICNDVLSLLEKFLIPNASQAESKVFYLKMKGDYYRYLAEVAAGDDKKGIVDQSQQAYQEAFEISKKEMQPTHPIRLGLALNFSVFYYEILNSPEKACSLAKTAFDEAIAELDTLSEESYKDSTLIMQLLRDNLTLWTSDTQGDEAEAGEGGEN
Assay text: In vitro Raf activity determination (Alpha Screen, phospho-MEK), C-Raf FL (full length, Y340E/Y341E)
Details: ATP 1 μM; 60 min pre-incubation; 1 hour reaction; column head does not say FL or TR
Source text: The activity of a compound according to the present invention can be assessed by well-known in vitro & in vivo methods. Raf inhibition data provided herein was obtained using the following procedures. Sf9 cells co-expressing both proteins were lysed and subjected to immobilized nickel chromatography and eluted with Imidazole. A second column (StrepII binding column) was used and eluted with desthiobiotin. […]
pIC50: −log10 of the molar value.
Assay endpoint: pIC50

{"Molecule": "Cc1ccc(NC(=O)c2ccnc(C(F)(F)F)n2)cc1-c1cc(OCCO)nc(C2CCOCC2)c1 [Example 254]", "Assay endpoint": "pIC50", "Result": 9.52}

P: COC1(c2cc(-c3cc(NC(=O)c4ccnc(C(F)F)c4)ccc3C)cc(OCCO)n2)COC1 [Example 158]
Q: COc1ncc(-c2cc(NC(=O)c3ccnc(C(C)(C)F)c3)ccc2C)cc1C1(C#N)COC1 [Example 111]
Query :: Select the item with the higher value of pIC50 from the options P and Q listed. Bench note: the answer is the label of the chosen record.
Result :: P
